Target: CYP1A2 (Homo sapiens)
Sequence (P05177 1-516): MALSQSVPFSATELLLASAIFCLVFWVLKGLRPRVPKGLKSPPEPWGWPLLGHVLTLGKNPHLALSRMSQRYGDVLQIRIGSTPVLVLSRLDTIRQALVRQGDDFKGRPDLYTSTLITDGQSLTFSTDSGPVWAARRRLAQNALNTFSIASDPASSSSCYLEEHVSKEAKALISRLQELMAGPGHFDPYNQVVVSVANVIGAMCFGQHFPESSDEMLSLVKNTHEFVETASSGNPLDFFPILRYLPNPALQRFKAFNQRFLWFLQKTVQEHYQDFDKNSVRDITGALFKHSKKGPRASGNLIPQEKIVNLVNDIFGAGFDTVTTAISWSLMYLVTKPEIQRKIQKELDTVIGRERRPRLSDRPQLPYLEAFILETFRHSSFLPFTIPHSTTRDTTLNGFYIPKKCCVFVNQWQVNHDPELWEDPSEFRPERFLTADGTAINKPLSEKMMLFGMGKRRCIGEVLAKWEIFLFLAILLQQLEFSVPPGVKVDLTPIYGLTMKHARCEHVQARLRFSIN
pIC50: −log10 of the molar value.

>  <compound>
Cc1cn2nc(-c3cc(=O)n4cc(N5CCNC6(CC6)C5)ccc4n3)cc(C)c2n1 [risdiplam]

>  <pIC50>
< 4.90

$$$$

---

target: CYP2C8 (Homo sapiens, UniProt P10632); assay: in vitro; settings: pooled human liver microsomes, pH 7.4, probe amodiaquine
Sequence (P10632 whole entry): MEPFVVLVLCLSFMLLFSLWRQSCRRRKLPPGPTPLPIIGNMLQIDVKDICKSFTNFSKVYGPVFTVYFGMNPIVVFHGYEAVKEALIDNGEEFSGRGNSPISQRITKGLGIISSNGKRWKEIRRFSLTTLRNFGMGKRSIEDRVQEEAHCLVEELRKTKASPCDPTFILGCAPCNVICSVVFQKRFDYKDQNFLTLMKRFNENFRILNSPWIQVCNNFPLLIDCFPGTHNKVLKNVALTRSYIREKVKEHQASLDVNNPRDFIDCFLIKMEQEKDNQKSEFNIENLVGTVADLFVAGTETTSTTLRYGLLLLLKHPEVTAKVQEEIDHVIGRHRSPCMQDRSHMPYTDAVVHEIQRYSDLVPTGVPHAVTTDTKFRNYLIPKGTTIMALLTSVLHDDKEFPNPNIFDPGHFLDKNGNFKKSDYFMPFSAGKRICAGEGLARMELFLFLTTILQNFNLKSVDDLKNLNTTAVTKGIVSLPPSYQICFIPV

>  <smiles-record>
Cc1cn2nc(-c3cc(=O)n4cc(N5CCNC6(CC6)C5)ccc4n3)cc(C)c2n1

>  <activity / %>
93

$$$$

---

biological target: CYP2C19 (Homo sapiens)
Sequence (P33261 whole entry): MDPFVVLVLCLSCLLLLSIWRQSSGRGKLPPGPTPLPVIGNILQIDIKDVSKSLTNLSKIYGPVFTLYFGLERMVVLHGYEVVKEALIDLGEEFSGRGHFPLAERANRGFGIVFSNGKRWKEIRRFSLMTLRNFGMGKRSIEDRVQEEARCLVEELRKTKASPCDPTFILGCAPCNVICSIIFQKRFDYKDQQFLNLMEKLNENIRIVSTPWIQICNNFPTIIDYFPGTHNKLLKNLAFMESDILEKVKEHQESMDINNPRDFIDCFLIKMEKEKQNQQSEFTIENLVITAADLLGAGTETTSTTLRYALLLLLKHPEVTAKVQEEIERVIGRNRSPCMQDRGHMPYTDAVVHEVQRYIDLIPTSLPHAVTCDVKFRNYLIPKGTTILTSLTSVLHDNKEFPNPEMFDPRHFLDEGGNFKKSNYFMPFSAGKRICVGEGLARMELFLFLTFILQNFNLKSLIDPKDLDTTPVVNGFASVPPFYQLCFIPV
pIC50: −log10 of the molar value.

>  <smiles-record>
Cc1cn2nc(-c3cc(=O)n4cc(N5CCNC6(CC6)C5)ccc4n3)cc(C)c2n1

>  <study-system>
CYP2C19 (Homo sapiens)

>  <pIC50>
< 4.90

$$$$

---

biological target: CYP2B6 (Homo sapiens); experiment: in vitro; conditions: pooled human liver microsomes, pH 7.4, probe bupropion
readout: activity (%)

>  <molecule>
Cc1cn2nc(-c3cc(=O)n4cc(N5CCNC6(CC6)C5)ccc4n3)cc(C)c2n1 [risdiplam]

>  <obs-value>
88

$$$$

---

molecular target: CYP2C8 (Homo sapiens); experiment: Time-dependent inhibition (IC50 shift) of CYP2C8 in human liver microsomes; conditions: microsomes
pIC50: −log10 of the molar value.

>  <molecule>
Cc1ccc(C)c(OCCCC(C)(C)C(=O)O[C@@H]2O[C@H](C(=O)O)[C@@H](O)[C@H](O)[C@H]2O)c1 [Gemfibrozil glucuronide, reference compound]

>  <study-system>
CYP2C8 (Homo sapiens)

>  <pIC50>
6.12

$$$$

---

target: CYP3A4 (Homo sapiens, UniProt P08684); assay: in vitro; conditions: human, microsomes, pH 7.4, IC50, CYP3A4-Midazolam Inactivation; plus NADPH; 30 min pre-incubation
Sequence (P08684 2-503): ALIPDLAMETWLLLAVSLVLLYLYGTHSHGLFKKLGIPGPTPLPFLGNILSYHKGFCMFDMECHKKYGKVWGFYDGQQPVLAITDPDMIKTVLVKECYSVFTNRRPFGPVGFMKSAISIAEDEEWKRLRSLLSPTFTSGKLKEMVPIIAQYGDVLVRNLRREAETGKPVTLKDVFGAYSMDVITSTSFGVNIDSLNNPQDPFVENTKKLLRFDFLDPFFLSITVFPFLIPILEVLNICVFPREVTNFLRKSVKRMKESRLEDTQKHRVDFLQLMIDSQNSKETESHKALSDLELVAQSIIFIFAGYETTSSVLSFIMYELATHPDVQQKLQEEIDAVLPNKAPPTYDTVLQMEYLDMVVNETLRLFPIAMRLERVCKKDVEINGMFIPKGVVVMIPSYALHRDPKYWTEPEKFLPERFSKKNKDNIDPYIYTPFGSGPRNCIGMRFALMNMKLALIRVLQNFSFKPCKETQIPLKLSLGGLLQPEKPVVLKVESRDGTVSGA

>  <smiles-record>
Cc1cn2nc(-c3cc(=O)n4cc(N5CCNC6(CC6)C5)ccc4n3)cc(C)c2n1

>  <IC50 [µM]>
4.8

$$$$

---

molecular target: CYP2B6 (Homo sapiens, UniProt P20813); assay: biochemical
Sequence (P20813 whole entry): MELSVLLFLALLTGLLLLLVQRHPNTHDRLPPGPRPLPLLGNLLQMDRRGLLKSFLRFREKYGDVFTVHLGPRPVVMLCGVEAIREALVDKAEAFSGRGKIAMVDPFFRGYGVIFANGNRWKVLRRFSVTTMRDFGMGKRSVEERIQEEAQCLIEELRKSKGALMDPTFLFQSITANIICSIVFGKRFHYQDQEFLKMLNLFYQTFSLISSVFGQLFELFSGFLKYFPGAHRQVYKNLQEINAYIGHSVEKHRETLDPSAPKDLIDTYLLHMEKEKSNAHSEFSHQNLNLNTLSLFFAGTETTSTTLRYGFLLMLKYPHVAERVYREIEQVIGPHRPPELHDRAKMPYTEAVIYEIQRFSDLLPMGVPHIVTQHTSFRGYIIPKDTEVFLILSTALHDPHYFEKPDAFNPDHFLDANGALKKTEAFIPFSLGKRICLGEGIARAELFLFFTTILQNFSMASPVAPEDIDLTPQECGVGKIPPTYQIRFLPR
pIC50: −log10 of the molar value.

>  <compound>
CC(=O)N1CCN(c2ccc(OCC3COC(Cn4ccnc4)(c4ccc(Cl)cc4Cl)O3)cc2)CC1 (centres unmarked) [Ketoconazole, reference compound]

>  <study-system>
CYP2B6 (Homo sapiens, UniProt P20813)

>  <relation>
=

>  <pIC50>
5.47

$$$$
>  <compound>
Cc1cn2nc(-c3cc(=O)n4cc(N5CCNC6(CC6)C5)ccc4n3)cc(C)c2n1

>  <study-system>
CYP2B6 (Homo sapiens, UniProt P20813)

>  <relation>
<

>  <pIC50>
4.90

$$$$

---

assay: Risdiplam treatment of patients with SMA: safety and exposure; format: in vivo, human; conditions: human, in vivo; SMA patients; steady state; read-out: mean AUCtau at steady state (therapeutic exposure observed in SMA patients)

>  <compound>
Cc1cn2nc(-c3cc(=O)n4cc(N5CCNC6(CC6)C5)ccc4n3)cc(C)c2n1 [risdiplam]

>  <result-units>
ng·h/mL

>  <AUC>
2000

$$$$
